assay: Plasma pharmacokinetics after single 40 mg oral dose (LC-MS/MS, noncompartmental); assay type: in vivo, human; conditions: human, po, 40 mg, 40 mg single oral dose, empty stomach, read-out: AUC∞, Geometric mean (%CV)
property-name: AUC(0-inf) (ng·h/mL)
Answer with a number only, understood to be in ng·h/mL.

What the record says about "CC(C)n1nc(-c2ccc3oc(N)nc3c2)c2c(N)ncnc21" : AUC(0-inf) is 2480

###

Experiment: Plasma pharmacokinetics after single 40 mg oral dose (LC-MS/MS, noncompartmental)
Assay type: in vivo, human
Conditions: human, po, 40 mg, 40 mg single oral dose, empty stomach, read-out: Tmax, Median (range)
Experimental: On cycle 1 day 1, triplicate ECGs and plasma samples for PK were collected from patients ≤15 minutes prior to dosing and at 15 minutes; 30 minutes; and 1‐, 1.5‐, 2‐, 2.5‐, 3‐, 4‐, 6‐, 8‐, and 10‐hour time points after receiving a single oral dose of 40‐mg sapanisertib. […] Plasma samples were analyzed for sapanisertib using a validated liquid chromatography with tandem mass spectrometry method with deuterated sapanisertib used as the internal standard. […]
property-name: Tmax (h)
Answer with a number only, understood to be in h.

What the record says about CC(C)n1nc(-c2ccc3oc(N)nc3c2)c2c(N)ncnc21 [sapanisertib] : Tmax is 1.52

###

experiment: Plasma pharmacokinetics after single 40 mg oral dose (LC-MS/MS, noncompartmental); type: in vivo, human; settings: human, po, 40 mg, 40 mg single oral dose, empty stomach, read-out: Tmax, Geometric mean (%CV)
property-name: Tmax
A bare number is not enough; add the unit after it.

What the record says about "CC(C)n1nc(-c2ccc3oc(N)nc3c2)c2c(N)ncnc21" : Tmax is 1.73 h

###

assay: Plasma pharmacokinetics after single 40 mg oral dose (LC-MS/MS, noncompartmental); assay type: in vivo, human; details: human, po, 40 mg, 40 mg single oral dose, empty stomach, read-out: AUC∞, Median (range)
property-name: AUC(0-inf) (ng·h/mL)
Answer with a number only, understood to be in ng·h/mL.

What the record says about "CC(C)n1nc(-c2ccc3oc(N)nc3c2)c2c(N)ncnc21" : AUC(0-inf) is 2220

###

assay: Plasma pharmacokinetics after single 40 mg oral dose (LC-MS/MS, noncompartmental); type: in vivo, human; conditions: human, po, 40 mg, 40 mg single oral dose, empty stomach, read-out: Cmax, Geometric mean (%CV)
property-name: Cmax (ng/mL)
Answer with a number only, understood to be in ng/mL.

What the record says about "CC(C)n1nc(-c2ccc3oc(N)nc3c2)c2c(N)ncnc21" : Cmax is 297

###

test: Plasma pharmacokinetics after single 40 mg oral dose (LC-MS/MS, noncompartmental); assay type: in vivo, human; settings: human, po, 40 mg, 40 mg single oral dose, no unit in table (hours), read-out: T1/2 (terminal disposition half-life), Geometric mean (%CV) (converted)
property-name: half-life (h)
Answer with a number only, understood to be in h.

What the record says about "CC(C)n1nc(-c2ccc3oc(N)nc3c2)c2c(N)ncnc21" : half-life is 9.06
